Items are presented alongside their recorded growth.
System: SW-620 colon
Experiment: NCI-60 one-dose screen, 48 h (100 = growth as untreated, 0 = no growth, -100 = all killed)
Conditions: 10 µM unless noted
The panel holds about 83,000 compounds, 20% with a hit somewhere; the sample as a whole holds those more often.
Provide the reading as a plain figure in %.

Some solved entries appear below for comparison.
{"columns": ["molecular string", "unit symbol", "growth"],
 "data": [
  ["CNC(=O)c1cccnc1", "%", 106],
  ["N#C/C(=C/c1c(O)ccc2ccccc12)C(N)=O", "%", 94.6],
  ["Cc1ccc(S(=O)(=O)NCN2C(=O)c3ccccc3C2=O)cc1", "%", 108]
]}

Please give measured growth of the following entry: Cc1c(Cl)cccc1NCN1C(=O)c2ccccc2C1=O
110

Give the reported growth for this compound. Cc1ccc2nc3c(nc2c1)-c1cccc2cccc-3c12
71.1

For Cc1n[nH]c(=O)n(/N=C\c2c[nH]c3ccccc23)c1=O , write its growth.
106

Please give the documented growth of O=C(O)CSCc1nc2ccccc2[nH]1
103

* * *

Test system: A549/ATCC NSCLC
Assay: NCI-60 one-dose screen, 48 h
Settings: 10 µM unless noted
Compounds without any hit were thinned out: in the full panel of roughly 83,000, 20% have a hit. The source made the active and inactive calls. The calls were made as follows: active = growth percent below 10; inactive = the rest.
Hi there, use one of these labels in your reply, thanks! active, inactive

Look over these answered cases.
{"columns": ["molecular string", "class name"],
 "data": [
  ["Cc1ccc2nc3c(nc2c1)-c1cccc2cccc-3c12", "inactive"],
  ["O=C=NC(c1ccccc1)(c1ccccc1)c1ccccc1", "inactive"],
  ["CCCCCCCCCCCCOc1ccccc1C=O", "inactive"]
]}

Moving on to the next compound.
Tell me the recorded outcome of this test for COc1cc(NS(C)(=O)=O)ccc1Nc1c2ccccc2nc2c(C)cccc12 .
active

* * *

growth for assorted compounds
Tested on: T-47D breast
Experiment: NCI-60 one-dose screen, 48 h (100 = growth as untreated, 0 = no growth, -100 = all killed)
Conditions: 10 µM unless noted
Compounds without any hit were thinned out: in the full panel of roughly 83,000, 20% have a hit. The source made the active and inactive calls. Rule for the calls: active = growth percent below 10; inactive = the rest.

Note down growth recorded for NCCSC(C[N+](=O)[O-])c1ccccc1Cl (stereo not drawn)
87.5% (inactive)

Tell me growth reported for Cc1ccc(-c2noc(C)n2)cc1
104% (inactive)

Indicate the recorded growth value for this compound: COc1ccc2ccccc2c1/C=N/N1CCCCC1
94.2% (inactive)

* * *

Test system: IGROV1 ovarian
Experiment: NCI-60 one-dose screen, 48 h (100 = growth as untreated, 0 = no growth, -100 = all killed)
Details: 10 µM unless noted
About 83,000 compounds went through this panel and 20% of them were active in at least one assay; those are over-represented in the sample as a whole.
quantity: growth (%)
Reply with just the number (in %).

These solved cases illustrate the format of a correct answer.
{"columns": ["compound", "target or system", "growth, %"],
 "data": [
  ["Cc1cc(=O)[nH]c(O)c1C#N", "IGROV1 ovarian", 100],
  ["Nc1ccc2[nH]c(-c3ccccc3)cc(=O)c2c1", "IGROV1 ovarian", 95.5],
  ["CCC(=O)C(CC)c1cccc(OC)c1 (configuration not stated)", "IGROV1 ovarian", 107],
  ["CCOC(=O)C(CNc1ccccc1)C(=O)OCC", "IGROV1 ovarian", 101],
  ["COc1ccc2c(=O)cc(-c3ccccc3)[nH]c2c1", "IGROV1 ovarian", 33.2],
  ["O=C1c2c(O)cc(O)cc2OC(c2ccc(O)c(O)c2)C1O (configuration not stated)", "IGROV1 ovarian", 126]
]}

Please supply the value of reported growth for the item CNC(=O)c1cccnc1
111

Return value of growth for input CCCCCCCCCCCCOc1ccccc1C=O , no commentary.
112

* * *

Tested on: MOLT-4 leukemia
Test: NCI-60 one-dose screen, 48 h
Details: 10 µM unless noted
The panel holds about 83,000 compounds, 20% with a hit somewhere; the sample as a whole holds those more often. Activity calls are given as the source filed them. The calls were made as follows: active = growth percent below 10; inactive = the rest.
Outcome field: choose from y = active, n = inactive

{"columns": ["compound", "target or system", "class name"],
 "data": [
  ["CCC(=O)C(CC)c1cccc(OC)c1 (stereo unspecified)", "MOLT-4 leukemia", "n"]
]}

What classification did OCc1ccccn1 end up with in this test?
n

Identify the outcome logged in this assay for the compound shown: N#C/C(=C/c1c(O)ccc2ccccc12)C(N)=O
n

# outcome recorded in this test, key = COc1cc(C(=O)N/N=C/c2ccc(N(C)C)cc2)cc(OC)c1OC
y

Hi, sorry to bother you, what did the test record for CCN(CC)C(=O)c1cccnc1 ?
n

* * *

System: SNB-19 CNS
Assay: NCI-60 one-dose screen, 48 h (100 = growth as untreated, 0 = no growth, -100 = all killed)
Conditions: 10 µM unless noted
The panel holds about 83,000 compounds, 20% with a hit somewhere; the sample as a whole holds those more often.
quantity: growth (%)
Write the answer as a number in %, unit excluded.

{"columns": ["compound", "growth (%)"],
 "data": [
  ["NC(=O)C1CC2C=CC1C2 (stereo not given)", 92.1],
  ["CNC(=O)c1cccnc1", 105],
  ["CN(Cc1ccccc1)Cc1ccccc1", 106],
  ["NC(=O)c1ccccc1OCC(O)CO (stereo not given)", 102]
]}

Identify growth associated with the compound Cc1ccc(-c2noc(C)n2)cc1
105

* * *

Tested on: COLO 205 colon
Test: NCI-60 one-dose screen, 48 h (100 = growth as untreated, 0 = no growth, -100 = all killed)
Details: 10 µM unless noted
Experimental: Cells are grown in 96 well plates and exposed to the test compound for 48 hours. Compounds are tested at a single concentration, which is 10^-5 M for most compounds. The reported endpoint is percent growth (GI% or GIPRCNT), where numbers from 0 - 100% represent growth inhibition, and numbers from -100% - 0 represent cell death. For example, a value of 40 represents 60% growth inhibition. A value of 0 means no net growth occurred over the course of the experiment. […]
This is part of a sample that, as a whole, favours compounds with a hit. Of some 83,000 tested, about 20% had one in any assay.
quantity: growth (%)
Answer with a number only, understood to be in %.

{"columns": ["molecule", "unit symbol", "growth"],
 "data": [
  ["c1ccc(N(c2ccccc2)c2ccccc2)cc1", "%", 113],
  ["Nc1n[nH]c(=S)n1-c1ccc(Cl)cc1", "%", 117],
  ["O=C1C2=C(C(=O)c3ccccc31)C(O)(S(=O)(=O)O)C(O)(S(=O)(=O)O)C1N=CC=CC21 (stereo not given)", "%", 50.3],
  ["OCc1ccccn1", "%", 127]
]}

Kindly review the next molecule as well.
Look up and report growth, with COLO 205 colon as system, for CCN(CC)CCc1nc(-c2ccccc2)no1
109

* * *

System: SK-MEL-2 melanoma
Test: NCI-60 one-dose screen, 48 h (100 = growth as untreated, 0 = no growth, -100 = all killed)
Conditions: 10 µM unless noted
Experimental: Growth inhibition of the SK-MEL-2 human tumor cell line is measured as a screen for anti-cancer activity. Cells are grown in 96 well plates and exposed to the test compound for 48 hours. Compounds are tested at a single concentration, which is 10^-5 M for most compounds. The reported endpoint is percent growth (GI% or GIPRCNT), where numbers from 0 - 100% represent growth inhibition, and numbers from -100% - 0 represent cell death. For example, a value of 40 represents 60% growth inhibition. […]
Compounds without any hit were thinned out: in the full panel of roughly 83,000, 20% have a hit.
We begin with a simple list: items and their reported growth.
All answers are understood in %, so give the number only.

Please report the measured growth for CCC(=O)C(CC)c1cccc(OC)c1 (configuration not stated)
116

In one line, give reported growth of the entry O=[N+]([O-])c1ccc(-n2[nH]nnc2=S)cc1 .
109

Return the recorded growth value; entry: CC(=O)C(/C=N/C(N)=O)=C(/C)O
119

* * *

Test system: HCC-2998 colon
Test: NCI-60 one-dose screen, 48 h
Details: 10 µM unless noted
About 83,000 compounds went through this panel and 20% of them were active in at least one assay; those are over-represented in the sample as a whole. Activity calls are given as the source filed them. The calls were made as follows: active = growth percent below 10; inactive = the rest.
Give one outcome, nothing more. List: t (active), f (inactive)

Study these solved cases before continuing.
{"columns": ["compound", "class name"],
 "data": [
  ["COc1ccc(NC(=S)Nc2ccccn2)cc1", "f"],
  ["Cc1ccc(S(=O)(=O)Nc2nc3ccccc3nc2Nc2ccc3nsnc3c2)cc1", "f"],
  ["Nc1ccc2ccc(N)cc2c1", "f"],
  ["N#C/C(=C1C=C/C(=N/O)C(Br)=C/1)c1ccccc1", "f"],
  ["O=C=NC(c1ccccc1)(c1ccccc1)c1ccccc1", "f"]
]}

Per the records of this test, what outcome belongs to O=C(O)CSCc1nc2ccccc2[nH]1 ?
f

What did this assay record as the result for CN(Cc1ccccc1)Cc1ccccc1 ?
f

Which outcome did this test record for the compound CNC(=O)c1cc(Oc2ccc(NC(=O)Nc3ccc(Cl)c(C(F)(F)F)c3)cc2)ccn1 ?
t

Any idea what this test logged for Cc1ccc2nc3c(nc2c1)-c1cccc2cccc-3c12 ?
f

Called result for CN1C(=O)C(N=Nc2ccc([N+](=O)[O-])cc2)SC1=S (configuration not stated)
t

Just curious, what result did CC1=CCC2CC1C2(C)C (configuration not stated) get here?
f

Called result for Cc1ccc(-c2noc(CC(=O)c3ccc([N+](=O)[O-])cc3)n2)cc1
f

Query: recorded result category for CC12CCC(CC1)C(C)(C)O2 in this test
f

Outcome logged for OCc1ccccn1 in this assay:
f

So what was the verdict on COc1ccc2ccccc2c1/C=N/N1CCCCC1 in this test?
f

Look up the recorded call for OC(COc1cccc2ccccc12)CN1CCN(c2ccc(Cl)cc2)CC1 (configuration not stated) in this test.
f

Could you check what this test reported for Cc1ccc(S(=O)(=O)NCN2C(=O)c3ccccc3C2=O)cc1 ?
f

Hello, I am checking results. What call was entered for CC1CCCC(=O)O1 (configuration not stated) ?
f

Field: outcome | Entry: CC(/C=N/N1C(=O)c2ccccc2C1=O)c1ccccc1 (configuration not stated)
f

Test call for this compound, please: Nc1n[nH]c(=S)n1-c1ccc(Cl)cc1
f

For this compound, state the assay outcome: CCOC(=O)c1c(C)oc(C)c(C(=O)OCC)c1=O
f

Look up the recorded call for CCOC(=O)C(CNc1ccccc1)C(=O)OCC in this test.
f

Dear all, I need the recorded test outcome for O=C(CCl)c1ccc2c(c1)Nc1ccccc1S2 , thank you.
f

Reference source: PubChem BioAssay (NCI)
